activity change, negative = inhibition reference
measurement.protocol: AP1 Signaling Pathway (AID 357);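 note: ME-180 reporter cells stimulated with EGF at its EC50 level; % is set by controls: 0 for no effect and ±100 for the full control effect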
applied.conditions: ME-180 (cervical carcinoma) AP-1-bla reporter, EGF-induced, beta-lactamase ratio, 5 h; at 7.69 µM (top of the series) unless noted
Inconclusive results are not listed. The source made the active and inactive calls. Calls come from the whole dose curve; as a rule, active = well fitted curve in either direction with a large enough effect (not every such curve was filed as active); inconclusive = small, poorly fitted or top-dose-only effect, or another doubt; inactive = flat fitted curve, though single readings scatter.

Given item CCC[C@H](Sc1nc(N)nc2nc[nH]c12)C(=O)O , the value recorded as its activity change, negative = inhibition is -8.03% (inactive)

Given item COc1ccc(C[N+](C)(C)N)cc1OC , the value recorded as its activity change, negative = inhibition is 0.59% (inactive)

----------
measurement.protocol: NFAT Signaling Pathway (AID 444);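 note: carbachol stimulus at about its EC50 of 1 µM final; % is set by controls: 0 for no effect and ±100 for the full control effect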
applied.conditions: Jurkat NFAT-bla M1, carbachol, beta-lactamase ratio, 5 h; at 7.69 µM (top of the series) unless noted
Records with an inconclusive call do not appear. Calls of active or inactive are those of the source. Calls follow the shape of the dose curve; as a rule, active = well fitted curve in either direction with a large enough effect (not every such curve was filed as active); inconclusive = small, poorly fitted or top-dose-only effect, or another doubt; inactive = flat fitted curve, though single readings scatter.
metric.name: activity change, negative = inhibition

Look over these answered cases.
OC[C@@H]1O[C@@H](n2cnc3c(NC4CCCCC4)ncnc32)[C@@H](O)[C@H]1O 1.85% [at 38 µM] (inactive)
CSc1nc(C)cc(Nc2ccc(O)c(CN3CCCCC3)c2)n1 -16.1% (inactive)
COc1ccc2c(c1)CCc1c(-c3noc4c3CCc3cc(OC)ccc3-4)noc1-2 -3.27% (inactive)
CC[C@H]1CN(C)[C@H]2Cc3c([nH]c4ccccc34)C(=O)C[C@H]1[C@H]2C(=O)OC 11.7% (inactive)

Recorded result, C[C@@H]1O[C@@H](n2cc(F)c(=O)[nH]c2=O)[C@H](O)[C@@H]1O , activity change, negative = inhibition: 3.74% [at 38 µM] (inactive)
